- assay_summary: yeast display, Sf9 membrane polyspecificity reagent, FACS + sequencing; frameworks hold sequencing errors
reported_property: polyreactivity (PSR sort gate)

INSERT INTO results (sequence_text, reported_property, value) VALUES
  ('QVQLVESGGGLVQAGGSLRLSCAASGGNFESNAMGWYRQAHGKERELVAAISWSGGTTYYADSVKGRFTISRDNAKNTDFLQMNSLKPEDTAVYYCAKVPFSYRSFGYWGQGTQVTVSS', 'polyreactivity (PSR sort gate)', 'low polyreactivity'),
  ('QVQLVESGGGLVQAGGSLRLSCAASGSIFYSNTMGWYRQAPGKERELVAAISRGGSTYYADSVKGRFTISRDNAKNTVYLQMNSLKPEDTAVYYCAARYRWAPAYDYWGQGTQVTVSS', 'polyreactivity (PSR sort gate)', 'high polyreactivity'),
  ('QVQLVESGGGLVQAGGSLRLSCAAYGRTFFWNAMGLYRKAPGTETELVAAITWSGGSTYYADSVKGRFTISRDNAKITVYLQMNSLKPEDTAVYYCASVVSDYVWRYEYWGQGTQVTVSS', 'polyreactivity (PSR sort gate)', 'low polyreactivity'),
  ('QVQLEESGGCLVQAGGSLRLSCAASGIIFWDNALGWYRQAPGKERELVASINYSGGSTYYADSVKGRFTNSRDNAKNTVYLQMNSLKPEDTAVYYCAARTVTLDDWDYAYDYWVQGTQVTVSS', 'polyreactivity (PSR sort gate)', 'low polyreactivity'),
  ('QVQLVESGGGLVQAGGSLRLSCAPSGRIFYPYAMGWYRQAPGKERELVAAISSRGDSTYYADSVKGRFTISRDNAKNTVYLQMNSLKPEDSAVYYCAAVYGSFPTRLYYWGQGTQVTVSS', 'polyreactivity (PSR sort gate)', 'high polyreactivity');

====

- assay_summary: yeast display, Sf9 membrane polyspecificity reagent, FACS + sequencing; frameworks hold sequencing errors
reported_property: polyreactivity (PSR sort gate)

INSERT INTO measurements (sequence_text, value) VALUES
  ('QVQLVESWGGLVQAGGSLRLSCAASGRTFGKYAMGWYRQAPGKERELVASITFSSGSTYYADSVKGRFTISRDNAKNTVYLQMNSLKPEDTAVYYCAKRGWGIYDYWGQGTQVTVSS', 'low polyreactivity'),
  ('QVQLVESGGGLVQAGGSLRLSCAASGRIFPNNAMGWYRQAPGKERELVAAITSIGGSTYYADSVKGRFTISRDNAKNTVYLQMNSLKPEDTAVYYCAARWERFVPTGRFSYYYYYWGQGTQVTVSS', 'high polyreactivity'),
  ('QVQLVESGGGLVQAGGSLRLICAASGSTFTQNAMGWYRQAPGKERELVAAISSSGTRTYYADSVKGRFTISRDNAKNTVYLQMNSLKPEDTAVYYCAATVYPSVYGENHYGYWGQGTKVTVSS', 'high polyreactivity'),
  ('QVQLVESGGGLVQAGGSLRLSCAASGRIFGAYAMGWYRQAPGKERELVAAITSGGSTYADSVKGRFTISRDNAKNTVYLQMNSLKPEDTAVYYCAADLITRSDSWWTGWIWEYDYWGQGTQVTVSS', 'low polyreactivity'),
  ('QVQLVESGGGLVQAGGSLRLSCADSGSTFDYPMGWYRQAPGKERELVASITFSTGSTYYADSVKGRFTISRDNAKNTVYLQMNSLKPEDTAVYYCATGVDTYSLTVEHDSWVQGTQVTVSS', 'low polyreactivity');

====

- assay_summary: yeast display, Sf9 membrane polyspecificity reagent, FACS + sequencing; frameworks hold sequencing errors
reported_property: polyreactivity (PSR sort gate)

INSERT INTO measurements (sequence_text, value) VALUES
  ('QVQLVESGGGLVHAGGSLRLSCAASGRTLWGYVMGWYREAPGKERELVAVITASGGSTYYADSVNGRFTISRDNAKNTVYLQMYSLKPEDTAVYYCNADSRAERYFWSFVENDYWVQGTQVTVSS', 'low polyreactivity'),
  ('QVQLEESGGGLVQAGGSLRLSCAASGFISFAYAMGWYIQAPGKERELVAGISRSGDSTYYADSVKGRFTISRDNAKNTVYLQMNSLKPEDTAVYYCAARQVDWFDYTTAQVGSYKVNYWGQGTQVTVSS', 'low polyreactivity');

====

- assay_summary: yeast display, Sf9 membrane polyspecificity reagent, FACS + sequencing; frameworks hold sequencing errors
reported_property: polyreactivity (PSR sort gate)

INSERT INTO measurements (sequence_text, reported_property, value) VALUES
  ('QVQLVESGGGLVQAGGSLRLSCAASGFTFYRYAMGWYRQAPGKERELVAAITSRGTSTYYADSVKGRFTISRDNAKNTVYLQMNSLKPEDTAVYYCAVKGYRYGTRYDYWGQGTQVTVSS', 'polyreactivity (PSR sort gate)', 'high polyreactivity'),
  ('QVQLVESGGGLVQAGGSLRLSCAASGRIFWYYAMGWYRQAPGKERELVAAITSGGSTNYADSVKGRFTISRDNEKNTVYLQMNSLKQEDTAVYYCNARWPYSGMNYWGQGTQVTVSS', 'polyreactivity (PSR sort gate)', 'high polyreactivity');

====

- assay_summary: yeast display, Sf9 membrane polyspecificity reagent, FACS + sequencing; frameworks hold sequencing errors
reported_property: polyreactivity (PSR sort gate)

INSERT INTO results (sequence_text, value) VALUES
  ('QVQLVESCGGLVQAGGSLRLSCAASGITFFGYDMGWYRQAPWKEWELVAAITSTGRTYYADSVKGRFTISRDNAKKTDYLQMNSLTPEDTAVYYCNAARYPRSWYYKLDYWGQGTQVTVSS', 'high polyreactivity'),
  ('QVQLVESGGGLVQAGGSLRLSCAASGSIFKLYALGWYRPAPGKERELVAAISLSDGGTYYADSVKGRFTISRDNPKNTVYLQMNSLKPEDTAVYYCNKYYWYPYGRAHDYGYWGQGTQVTVSS', 'high polyreactivity');

====

- assay_summary: yeast display, Sf9 membrane polyspecificity reagent, FACS + sequencing; frameworks hold sequencing errors
reported_property: polyreactivity (PSR sort gate)

INSERT INTO measurements (sequence_text, value) VALUES
  ('QVQLVESGGGLVQAGGSLRLSCAASGFTFQENAMGWYRQAPGKERELVAAISKSGGITYYADSVKGRFTISRDNAKNTVYLHMNSLKPEDTAVYYCNKGNAYVVYTSGYDYWGQGTQVTVSS', 'low polyreactivity'),
  ('QVQLVESGGGLVQAGGSLRLSCADSGSTSYRYAMGRYRQSPGKERELVAVITSGSSTYYADSVKGRFTISRDNAKNTDYLQINSLKPEDTAVYYCAVGRTYRRYSAASYNYWGQGTQVTVSS', 'high polyreactivity'),
  ('QVQLVESGGGLVQAGGSLRLSCAASGSTFEEYAMGWYRKAPGKERELVAGITWGGGSTYYADSVKGRFTISRDNAKNTVYLQMNSLKPEDTAVYYCVFAFEYYYWGQGTQVTVSS', 'low polyreactivity'),
  ('QVQRVESGGGLVQAGGSLRLSCAASGRIFIANAMGWYRQAPGKERELVAAISFSGGSTYYADSVKGRFTISRDHAKTTVYLQMNSLNPEDTAVYYCNALYTSYYRPSGMGYWGQGTQVTVSS', 'high polyreactivity'),
  ('QVQLVESGGGLVQAGGSLRLICAASGLIFTHNTMGWYRQAPGKERELVAAITTSGGTTYYADSVKGRFTISRDNAKNTVYLQMNSLKPEDTAFYYCAARAPWPKWGYYYWGQGTQVTVSS', 'high polyreactivity'),
  ('QVQLVESGGGLVQAGGSLRLSCAASGITFSFYVMGWDRQAPRKERELVAAISRGGSTYYADSVKGRFTISRDNAKNTVYLQMNSLKPEDTAVYYCAAVRLSRVYYWGQGTQVTVSA', 'high polyreactivity'),
  ('QDQLVESGGGLVQAGGSLRLSCAASGLNFRFYAMGWYRTATGKERELVAAISSRGGSTYYAHSVKGRFTISRDNSKNTFYLQMISLKPEDTWVYYCAADYGDEYEYCGQGTQVTVSS', 'high polyreactivity'),
  ('QVQLVESGGGLVQAGGSLRLSCAGSGFTFSSYTIGWYRQAPGKEREFVASISSGGSTNYADSVKGRFTISRDNAKNTVYLQMNSLKPEDTAVYYCAAGTTGITFFDVGSGYDYWGQGTQVTVSS', 'low polyreactivity'),
  ('QVQLVESGGGLVQAGGILRLSCAASGRIFYNYAMGWYRQAPGKERELGAAISGSGGSTYYADSVKGRFTISRDNAKNTVYLQMNSLKPEDTAVYYCSTSGPQYDSRNFDYWGQGTQVTVSS', 'low polyreactivity'),
  ('QVQLVESGGGLVQAGGSLRLSCAASGSIVRRYAMGWYRQAPGKEREFVAAISKRGGGTYYADSVKGRFTISRDNAKNTVYLQMNSLKPEDTAVYYCAAPWRRIGYTTRGYTLYDYWGQGTQVTVSS', 'high polyreactivity'),
  ('QVQLVESGGGLVQAGGSLRLSCAASGNIFRGYTMGWYRQAPGKERELVAVISFGDGGTYYADSVKGRFTISRDNAKNTVYLQMNSLKPEDTAVYYCATDYQSTSVWGGHFVINPYDYWGQGTQVTVSS', 'low polyreactivity');

These measurements were taken from the nanobody polyreactivity screen of Harvey et al. (2022).
